- system.name: segments of rabbit duodenum (Oryctolagus cuniculus)
- Sequence (G1T803 1-400): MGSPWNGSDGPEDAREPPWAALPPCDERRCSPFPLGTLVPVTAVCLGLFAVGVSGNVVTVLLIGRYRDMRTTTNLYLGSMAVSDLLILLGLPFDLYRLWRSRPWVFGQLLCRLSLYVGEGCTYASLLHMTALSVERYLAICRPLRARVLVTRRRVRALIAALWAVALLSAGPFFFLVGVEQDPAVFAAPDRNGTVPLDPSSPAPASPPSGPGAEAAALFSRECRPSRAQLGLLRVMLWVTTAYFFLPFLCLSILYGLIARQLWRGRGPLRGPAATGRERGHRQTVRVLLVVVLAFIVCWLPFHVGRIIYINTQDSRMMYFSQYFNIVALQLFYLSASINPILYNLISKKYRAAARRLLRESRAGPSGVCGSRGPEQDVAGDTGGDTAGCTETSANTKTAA
- run.description: Rabbit duodenal smooth muscle strip tissue bath assay
- Format: cell-based
- assay.context: negative logarithm of the dose giving 50% of the maximal response to motilin; isotonic contraction of rabbit duodenum segments
Square brackets hold non-standard residues; d marks the D form. Peptide text beside a SMILES is read from it. * marks the point of attachment. X1 = C[N+](C)(C)[C@@H](Cc1ccccc1)C(=O)*; NMe2Phe = CN(C)[C@@H](Cc1ccccc1)C(=O)*; NMeF = CN[C@@H](Cc1ccccc1)C(=O)O; dOrn = NCCC[C@@H](N)C(=O)O
Listing: pEC50 of selected compounds
Reply with just the number.

CC[C@H](C)[C@H](NC(=O)[C@@H]1CCCN1C(=O)[C@@H](NC(=O)[C@H](Cc1ccccc1)NC)C(C)C)C(=O)N[C@@H](Cc1ccccc1)C(=O)N[C@H](C(=O)N[C@@H](Cc1ccc(O)cc1)C(=O)NCC(=O)N[C@@H](CCC(=O)O)C(=O)N[C@@H](CC(C)C)C(=O)N[C@@H](CCC(N)=O)C(=O)N[C@H](CCCNC(=N)N)C(=O)N[C@@H](CC(C)C)C(=O)N[C@@H](CCC(N)=O)C(N)=O)[C@@H](C)O (H-[NMeF]VPIFTYGELQ[dR]LQ-NH2) : 7.95

Test item CC[C@H](C)[C@H](NC(=O)[C@@H]1CCCN1C(=O)[C@@H](NC(=O)[C@H](Cc1ccccc1)N(C)C)C(C)C)C(=O)N[C@@H](Cc1ccccc1)C(=O)N[C@H](C(=O)N[C@@H](Cc1ccc(O)cc1)C(=O)NCC(=O)N[C@@H](CCC(=O)O)C(=O)N[C@@H](CC(C)C)C(=O)N[C@@H](C)C(=O)N[C@H](CCCNC(=N)N)C(=O)N[C@@H](CC(C)C)C(=O)N[C@@H](CCC(N)=O)C(N)=O)[C@@H](C)O (NMe2Phe-VPIFTYGELA[dR]LQ-NH2) ; segments of rabbit duodenum (Oryctolagus cuniculus); reported pEC50 was 7.76

Item CC[C@H](C)[C@H](NC(=O)[C@@H]1CCCN1C(=O)[C@@H](NC(=O)[C@@H](N)Cc1ccccc1)C(C)C)C(=O)N[C@@H](Cc1ccccc1)C(=O)N[C@H](C(=O)N[C@@H](Cc1ccc(O)cc1)C(=O)NCC(=O)N[C@@H](CCC(=O)O)C(=O)N[C@@H](CC(C)C)C(=O)N[C@@H](CCC(N)=O)C(=O)N[C@H](CCCN)C(=O)N[C@@H](CC(C)C)C(=O)N[C@@H](CCC(N)=O)C(=O)O)[C@@H](C)O [[D-Orn^12, Leu^13]pMOT(1-14)] (H-FVPIFTYGELQ[dOrn]LQ-OH) ; assay system segments of rabbit duodenum (Oryctolagus cuniculus); pEC50 reported as 6.83

The value of pEC50 recorded for CC[C@H](C)[C@H](NC(=O)[C@@H]1CCCN1C(=O)[C@@H](NC(=O)[C@H](Cc1ccccc1)NC)C(C)C)C(=O)N[C@@H](Cc1ccccc1)C(=O)N[C@H](C(=O)N[C@@H](Cc1ccc(O)cc1)C(=O)NCC(=O)N[C@@H](CCC(=O)O)C(=O)N[C@@H](CC(C)C)C(=O)N[C@@H](CCC(N)=O)C(=O)N[C@@H](CCCNC(=N)N)C(=O)N[C@@H](CC(C)C)C(=O)N[C@@H](CCCCN)C(N)=O)[C@@H](C)O (H-[NMeF]VPIFTYGELQRLK-NH2) when tested on segments of rabbit duodenum (Oryctolagus cuniculus) reads 7.74

# value of pEC50, segments of rabbit duodenum (Oryctolagus cuniculus), item CC[C@H](C)[C@H](NC(=O)[C@H](C)NC(=O)[C@@H](NC(=O)[C@H](Cc1ccccc1)[N+](C)(C)C)C(C)C)C(=O)N[C@@H](Cc1ccccc1)C(=O)N[C@H](C(=O)N[C@@H](Cc1ccc(O)cc1)C(=O)NCC(=O)N[C@@H](CCC(=O)O)C(=O)N[C@@H](CC(C)C)C(=O)N[C@@H](C)C(=O)N[C@H](CCCNC(=N)N)C(=O)N[C@@H](CC(C)C)C(=O)N[C@@H](CCC(N)=O)C(N)=O)[C@@H](C)O (X1-VAIFTYGELA[dR]LQ-NH2) = 7.31
